Procedure Text: Plasma pharmacokinetics and brain distribution after single IV, IP and oral administration
Format: in vivo
Assay Setup: male, C57BL/6, mouse, in vivo, ip, 10 mg/kg, Brain concentration, individual animal
Where a name gives a salt, the structure may show the parent alone.
Recorded Endpoint: concentration at 6 h (ng/g)

[
  {
    "Molecule": "Cc1nc2ccccn2c1-c1csc(Nc2ccc3c(c2)OC(F)(F)O3)n1 [Compound 16, hydrochloride]",
    "Recorded Endpoint": "concentration at 6 h",
    "Measured Value": 0
  }
]

* * *

Procedure Text: Plasma pharmacokinetics and brain distribution after single IV, IP and oral administration
Format: in vivo
Assay Setup: male, C57BL/6, mouse; plasma, IV 10 mg/kg; read-out: T1/2, terminal elimination half-life (converted)
Where a name gives a salt, the structure may show the parent alone.
Recorded Endpoint: half-life (min)

[
  {
    "Compound": "Cc1nc2ccccn2c1-c1csc(Nc2ccc3c(c2)OC(F)(F)O3)n1 [Compound 16, hydrochloride]",
    "Recorded Endpoint": "half-life",
    "Measured Value": 25.8
  }
]
